- System: SEM cells
- assay_info: cell viability relative to DMSO control; higher = less cytotoxic
- cond: RPMI 5 mM glucose + 10% dialyzed FBS; 48 h; 0.569 µM
parameter: cell viability (%)

CC#C[C@]1(O)CC[C@H]2[C@@H]/3CCC/4=C/C(=O)CCC4=C3[C@H](C[C@]12C)C5=CC=C(C=C5)N(C)C: 96
O=C(NC1CCNCC1)c1n[nH]cc1NC(=O)c1c(Cl)cccc1Cl: 129
Cc1c[nH]c(/C=C2\C(=O)Nc3ccccc32)c1CCC(=O)O: 67.6
CC(=O)N1CCN(c2ccc(OCc3nn(C)c(C)c3-c3cccc4c(CCCOc5cc(C)c(Cl)c(C)c5)c(C(=O)O)n(Cc5cccnc5)c34)cc2)CC1: 110
